# Target Of Assay: T1, recombinant Ovr110-hFc encoded by Ovr110 Construct 2 (human)
# T1 construct: Captured on plates by goat anti-human IgG Fc; also called Ovr110-hFc (with TM)
# T1 chain: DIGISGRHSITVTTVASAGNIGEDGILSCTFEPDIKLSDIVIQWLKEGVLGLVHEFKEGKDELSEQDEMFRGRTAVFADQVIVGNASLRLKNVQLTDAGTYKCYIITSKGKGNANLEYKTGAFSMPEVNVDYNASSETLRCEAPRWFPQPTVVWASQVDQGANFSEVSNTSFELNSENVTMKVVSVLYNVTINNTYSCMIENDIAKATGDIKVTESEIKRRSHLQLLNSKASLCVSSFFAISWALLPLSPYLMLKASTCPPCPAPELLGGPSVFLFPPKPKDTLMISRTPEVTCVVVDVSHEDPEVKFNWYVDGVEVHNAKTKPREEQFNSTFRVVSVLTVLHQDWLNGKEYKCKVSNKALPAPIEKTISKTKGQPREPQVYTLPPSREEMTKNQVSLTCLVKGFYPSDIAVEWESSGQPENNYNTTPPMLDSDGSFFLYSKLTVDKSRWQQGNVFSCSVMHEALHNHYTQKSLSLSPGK
# Assay Remarks: competition ELISA; row = unlabeled blocking MAb; competitor = biotinylated detecting MAb Q11.12.3
Quantity: signal/noise ratio
Give the figure only, with no unit attached.

Example entries and their recorded answers appear below.
>  <Binder>
Ovr110.Q19 (antibody, IgG1, V domains shown, Mouse hybridoma MAb; also called Q19.6; Ovr110.Q19.6) VH: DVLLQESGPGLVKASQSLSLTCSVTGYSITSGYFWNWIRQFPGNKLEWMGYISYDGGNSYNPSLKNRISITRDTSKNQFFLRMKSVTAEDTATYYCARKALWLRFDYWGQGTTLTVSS VL: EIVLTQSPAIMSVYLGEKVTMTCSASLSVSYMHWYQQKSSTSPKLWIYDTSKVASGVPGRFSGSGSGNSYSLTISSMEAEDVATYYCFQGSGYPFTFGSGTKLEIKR

>  <signal/noise ratio>
1

$$$$
>  <Binder>
Ovr110.Q11 (antibody, V domains shown, Mouse hybridoma MAb; also called Q11.12.3; Ovr110.Q11.12.3) VH: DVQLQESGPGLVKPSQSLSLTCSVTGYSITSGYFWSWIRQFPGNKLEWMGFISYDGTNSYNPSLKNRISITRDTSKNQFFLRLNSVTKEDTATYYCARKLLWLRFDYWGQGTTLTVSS VL: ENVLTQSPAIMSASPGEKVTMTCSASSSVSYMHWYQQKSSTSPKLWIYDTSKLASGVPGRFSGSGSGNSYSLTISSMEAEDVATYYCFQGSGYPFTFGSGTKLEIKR

>  <signal/noise ratio>
1

$$$$
>  <Binder>
Ovr110.Q23 (antibody, IgG1, V domains shown, Mouse hybridoma MAb; also called Q23.6) VH: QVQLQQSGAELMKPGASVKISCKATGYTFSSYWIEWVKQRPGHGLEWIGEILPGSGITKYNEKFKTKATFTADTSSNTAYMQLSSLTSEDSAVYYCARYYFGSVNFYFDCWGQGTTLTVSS VL: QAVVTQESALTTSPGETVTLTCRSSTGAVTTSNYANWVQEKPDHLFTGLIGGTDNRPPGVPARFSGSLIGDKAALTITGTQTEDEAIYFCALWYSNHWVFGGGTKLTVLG

>  <signal/noise ratio>
5.2

$$$$

Output measured signal/noise ratio for this item: Ovr110.Q27 (antibody, IgG1, V domains shown, Mouse hybridoma MAb; also called Q27.4; Q27.2) VH: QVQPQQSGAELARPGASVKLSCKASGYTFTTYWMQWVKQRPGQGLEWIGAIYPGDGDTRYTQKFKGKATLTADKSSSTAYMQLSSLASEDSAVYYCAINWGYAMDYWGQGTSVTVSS VL: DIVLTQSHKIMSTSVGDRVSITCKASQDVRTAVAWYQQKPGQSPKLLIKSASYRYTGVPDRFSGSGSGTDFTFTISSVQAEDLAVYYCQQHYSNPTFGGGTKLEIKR 5.5

Output measured signal/noise ratio for this item: Ovr110.Q12 (antibody, IgG1, V domains shown, Mouse hybridoma MAb; also called Q12.2; Ovr110.Q12.2) VH: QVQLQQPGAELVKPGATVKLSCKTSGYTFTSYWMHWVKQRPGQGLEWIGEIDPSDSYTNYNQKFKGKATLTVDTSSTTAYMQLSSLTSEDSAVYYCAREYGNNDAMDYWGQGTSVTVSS VL: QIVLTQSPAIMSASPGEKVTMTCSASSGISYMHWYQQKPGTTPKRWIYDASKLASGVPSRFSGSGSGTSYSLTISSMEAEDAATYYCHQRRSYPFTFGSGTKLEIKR 1.2
